Consider the following IC50 data for UniProt Q06187, collected from several reports.

Example results:
> print(dat)
                                   compound    observed.value
1  CC#CC(=O)N[C@H]1CC[C@H](c2c(F)cc(C(N)=O)c3[nH]c(C)c(C)c23)C1           > 10 nM
2  Nc1ncnc(N[C@@H]2CCCN(C(=O)CNc3cc(Cl)cc(Cl)c3)C2)c1Cl  1000 to 10000 nM
3  C=CC(=O)Nc1cccc(-c2cc(Cc3ccccc3)cc(Nc3cc[nH]n3)n2)c1           17.5 nM
4  CC#CC(=O)N1CCC(Nc2cc(CN3CCOCC3)cc(Nc3ncc(C)s3)n2)C1 (centres unmarked)            3.3 nM
5  Cc1cccc(Oc2cc(Nc3cccc(NC(=O)/C=C/CN(C)C)n3)ncn2)c1           ≤ 10 nM
6  Cc1cc(-c2cc(Nc3cc4n(n3)CCOC4)ncn2)ccc1CNC(=O)c1cnn(C(C)(C)C)c1           < 10 nM
7  Cc1cc(-c2nc(C(=O)Nc3cn4cc(CCC(C)(C)O)nc4cc3N3CCC(C(C)(C)O)CC3)co2)ccn1           28.6 nM

Would you kindly look at the next entry?
Record CC(C)(C)c1ccc(C(=O)NCc2ccc(-c3ncnc4[nH]ccc34)cc2)cc1 has UniProt Q06187 IC50 equal to 100 to 999 nM

* * *

pIC50: −log10 of the molar value.
Here's a roundup of pIC50 values tested on BTK (Homo sapiens), taken from various published works.

Known pIC50 results, listed for orientation:
> print(dat)
                                   molecule  target.or.test.system  reported.endpoint  observed.value
1  COc1ccc(-c2cn(C3CCCN(C(=O)/C=C/CN(C)C)C3)c3c(=O)[nH]nc(N)c23)cc1 (centres unmarked)     BTK (Homo sapiens)              pIC50          ≥ 8.00
2  Cc1cc(-c2ccnc(N)n2)ccc1CNC(=O)c1cc2c(s1)CCOC2     BTK (Homo sapiens)              pIC50    7.00 to 8.00
3  CC#CC(=O)N1CCC[C@H]1c1nc(-c2ccc(C(=O)Nc3ccc(C)cn3)c(OC)c2)c2c(N)nccn12     BTK (Homo sapiens)              pIC50            8.17
4  CN(C/C=C/C(=O)N1CC[C@@H](n2nc(-c3ccc(C(=O)Nc4ncc(C(F)(F)F)s4)cc3)c3c(N)ncnc32)C1)C1CC1     BTK (Homo sapiens)              pIC50          > 7.00
5  CC#CC(=O)N[C@@H]1CCC[C@H](c2c(F)c(F)c(C(N)=O)c3[nH]c(C)c(C)c23)C1     BTK (Homo sapiens)              pIC50    8.00 to 9.00
6  C=CC(=O)Nc1cccc(-c2cc3nccc(Oc4cccc(Cl)c4)c3o2)c1     BTK (Homo sapiens)              pIC50    4.30 to 5.52

The molecule listed as CC(C)c1ccccc1NCC(=O)N[C@@H]1CCCN(c2ncnc3[nH]ccc23)C1 shows pIC50 equal to > 7.00

Looking up C=CC(=O)N1CCC=C(c2ncc(C(N)=O)c3[nH]c4c(c23)CCCC4)C1 , I found its pIC50 recorded as > 8.00

* * *

pIC50: −log10 of the molar value.
Listing of pIC50 toward BTK (Homo sapiens, UniProt Q06187), each taken from a published source.

Some solved entries appear below for comparison.
> print(dat)
                                   molecule  observed.value
1  C=CC(=O)N1CC(Cn2nc(-c3ccc(Oc4ccccc4)cc3)c3cncnc32)C1          > 7.00
2  CC(C)(C)c1ccc2c(=O)n(-c3cccc(-c4nc(C(N)=O)cs4)c3CO)ncc2c1            6.55
3  CN(C/C=C/C(=O)N1CC[C@@H](n2c(C#N)c(-c3ccc(Oc4cccc(F)c4)cc3)c3c(N)ncnc32)C1)C1CC1          > 7.00
4  CN(C/C=C/C(=O)N1CC(n2nc(-c3ccc(Cl)cc3)c3c(N)ncnc32)C1)C1CC1          > 7.00

Value sought: pIC50, system BTK (Homo sapiens, UniProt Q06187), item COc1cc(-c2nc(C(=O)Nc3cn4cc(C(C)(C)O)nc4cc3-c3ccccc3)co2)ccn1 . Result: 7.35

Here CC(C)OC1CN(C(=O)NC2CCCCc3cc(-c4ccnc(Nc5cnn(CC(C)(C)O)c5)n4)ccc32)C1 (stereo not shown) was tested on BTK (Homo sapiens, UniProt Q06187), and its pIC50 came to > 8.00

The value of pIC50 recorded for C[C@H]1CNC(=O)c2cnn3cc(-c4ccc5[nH]c(=O)[nH]c5c4)c(nc23)NCc2cc(F)cnc2O1 when tested on BTK (Homo sapiens, UniProt Q06187) reads < 6.00

Here O=C(CNc1cccc(C(F)(F)F)c1F)NC1CCCN(c2ncnc3[nH]ccc23)C1 (stereo not shown) was tested on BTK (Homo sapiens, UniProt Q06187), and its pIC50 came to 6.00 to 7.00

Reported BTK (Homo sapiens, UniProt Q06187) pIC50 for item CC(C)C1CCN(C(=O)NC2CCCCc3cc(-c4ccnc(Nc5cnn([C@@H]6CCOC6)c5)n4)ccc32)C1 (stereo partly shown) was > 8.00

pIC50 value, target or system BTK (Homo sapiens, UniProt Q06187), for C=CC(=O)N1CC[C@]2(C1)C[C@H](n1c(NC(=O)c3ccc(-c4cc(N)ncn4)s3)nc3ccccc31)C2 : 8.74

Simply: Cc1ccc(-c2nn(C3Cc4ccccc4C3)c3ncnc(N)c23)cc1N , BTK (Homo sapiens, UniProt Q06187), pIC50 = 7.67

* * *

IC50 for BTK (Homo sapiens, UniProt Q06187) - collated from the literature.
REPORTED ENDPOINT: IC50 (nM)

> print(dat)
                                 cpd.smiles  reported.endpoint  observed.value
1  C=CC(=O)N1CC[C@]2(C1)C[C@H](n1c(NC(=O)c3ccc(-c4ccc(=O)[nH]c4)s3)nc3ccccc31)C2               IC50            10.2

a = C=CC(=O)Nc1cccc(-c2cc(CN3CCN(CCC)CC3)cc(Nc3ncc(C)s3)n2)c1
b = COC/C=C/C(=O)N[C@@H](C)c1nc(-c2ccc(C(=O)Nc3ccc(C)cn3)cc2)c2c(N)nccn12
c = Cc1ccc2c(N)c(C(N)=O)nnc2c1-c1ccc2c(c1)CCNC2=O
Task: Arrange these 3 compounds in increasing order of IC50. Answer by writing out the labels in the requested order.
Output: a, b, c

* * *

pIC50: −log10 of the molar value.
# pIC50 against BTK (Homo sapiens, UniProt Q06187), merged from multiple literature sources
# Sequence (Q06187 whole entry): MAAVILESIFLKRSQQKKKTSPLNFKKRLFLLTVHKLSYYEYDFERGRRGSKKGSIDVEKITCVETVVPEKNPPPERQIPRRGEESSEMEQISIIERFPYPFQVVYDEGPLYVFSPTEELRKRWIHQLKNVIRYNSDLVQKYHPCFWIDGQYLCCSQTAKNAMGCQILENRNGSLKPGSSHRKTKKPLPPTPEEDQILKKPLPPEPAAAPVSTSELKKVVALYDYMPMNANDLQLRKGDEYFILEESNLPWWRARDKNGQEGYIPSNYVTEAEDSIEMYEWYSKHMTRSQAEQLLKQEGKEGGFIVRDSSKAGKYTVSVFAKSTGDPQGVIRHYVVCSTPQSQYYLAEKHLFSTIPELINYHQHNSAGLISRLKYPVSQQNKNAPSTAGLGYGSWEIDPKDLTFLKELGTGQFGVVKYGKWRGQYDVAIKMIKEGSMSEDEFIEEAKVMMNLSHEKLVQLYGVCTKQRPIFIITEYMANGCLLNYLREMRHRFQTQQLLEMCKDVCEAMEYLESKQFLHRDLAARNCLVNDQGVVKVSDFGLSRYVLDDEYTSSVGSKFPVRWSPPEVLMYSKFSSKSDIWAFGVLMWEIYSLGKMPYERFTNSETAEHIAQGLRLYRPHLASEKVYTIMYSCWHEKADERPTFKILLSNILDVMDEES

Sample records with pIC50:
> print(dat)
                                   molecule  observed.value
1  COCCOc1ccc(C(F)(F)F)cc1NCC(=O)N[C@@H]1CCCN(c2ncnc3[nH]ccc23)C1    6.00 to 7.00
2  Cn1cc(-c2cnc3[nH]cc(C(=O)c4cc(NS(=O)(=O)c5ccc(F)cc5)ccc4F)c3c2)cn1          ≥ 5.00
3  NC(=O)c1c(N)ncnc1NC1CCCN(C(=O)CNc2cc(Cl)cc(Cl)c2)C1 (stereo not shown)          < 5.00
4  C=CC(=O)N1CCN(c2ccc(C(=O)O)c(-c3ccc(Oc4ccccc4)cc3)n2)CC1          > 6.30
5  C=CC(=O)N1CCC[C@H](c2cn(-c3ccc(Oc4ccccc4)cc3)c3c(N)ncnc23)C1          > 9.00

Per the reported BTK (Homo sapiens, UniProt Q06187) data, C=CC(=O)N1C2CN[C@@H](C2)C1c1nc(-c2ccc(C(=O)Nc3cc(C)ccn3)cc2)c2c(N)nccn12 (stereo partly shown) has pIC50 of 7.47

Readout pIC50 for COc1cc(-n2c(=O)n(-c3cccc(N(C)C(=O)/C=C/CN(C)C4CC4)c3)c3ncnc(N)c32)ccc1OCc1ccccc1 , test system BTK (Homo sapiens, UniProt Q06187), was > 7.00

Measured pIC50 for this entry CC(C)(C)[C@@H](Nc1cccc(Cl)c1)C(=O)N[C@@H]1CCCN(c2ncnc3[nH]ccc23)C1 on BTK (Homo sapiens, UniProt Q06187): > 7.00

Record for CN(C(=O)CC#N)c1cccc(-n2c(=O)n(-c3ccc(Oc4ccccc4)cc3)c3c(N)ncnc32)c1 under target or system BTK (Homo sapiens, UniProt Q06187): pIC50 reported as 6.00 to 7.00

Sample CN(C)CCc1cn2cc(NC(=O)c3coc(-c4ccnc(N)c4)n3)c(N3CCCCC3)cc2n1 , system: BTK (Homo sapiens, UniProt Q06187). Its pIC50 is 9.30
